- Measurement Parameters: in MIBK, 298.35 K

# Test Smiles, solubility (mole fraction)
records = [
    ("COC(=O)c1nc[nH]n1", 0.00111),
]

* * *

- Measurement Parameters: in n-propanol, 292.75 K

# Test Smiles, solubility (mole fraction)
data = [
    ("COC(=O)c1nc[nH]n1", 0.00227),
]

* * *

- Measurement Parameters: in cyclohexanone, 289.05 K

# Test Smiles, solubility (mole fraction)
rows = [
    ("COC(=O)c1nc[nH]n1", 0.00622),
]

* * *

- Measurement Parameters: in cyclopentanone, 288.95 K

# Test Smiles, solubility (mole fraction)
records = [
    ("COC(=O)c1nc[nH]n1", 0.00219),
]

* * *

- Measurement Parameters: in cyclohexanone, 293.25 K
Endpoint: solubility (mole fraction)

# Test Smiles, Obs Value
data = [
    ("COC(=O)c1nc[nH]n1", 0.00657),
]

* * *

- Measurement Parameters: in 3-pentanone, 307.35 K
Endpoint: solubility (mole fraction)

# Test Smiles, Endpoint, Obs Value
data = [
    ("COC(=O)c1nc[nH]n1", "solubility (mole fraction)", 0.00191),
]

* * *

- Measurement Parameters: in MIBK, 317.05 K
Endpoint: solubility (mole fraction)

# Test Smiles, Endpoint, Obs Value
records = [
    ("COC(=O)c1nc[nH]n1", "solubility (mole fraction)", 0.00197),
]

* * *

- Measurement Parameters: in acetonitrile, 313.25 K

# Test Smiles, solubility (mole fraction)
records = [
    ("COC(=O)c1nc[nH]n1", 0.00305),
]

* * *

- Measurement Parameters: in acetonitrile, 307.35 K

# Test Smiles, solubility (mole fraction)
records = [
    ("COC(=O)c1nc[nH]n1", 0.00245),
]

* * *

- Measurement Parameters: in n-butanol, 312.95 K

# Test Smiles, solubility (mole fraction)
measured = [
    ("COC(=O)c1nc[nH]n1", 0.00613),
]

* * *

- Measurement Parameters: in ethanol, 297.25 K

# Test Smiles, solubility (mole fraction)
data = [
    ("COC(=O)c1nc[nH]n1", 0.00305),
]

* * *

- Measurement Parameters: in THF, 307.35 K

# Test Smiles, solubility (mole fraction)
rows = [
    ("COC(=O)c1nc[nH]n1", 0.00517),
]

* * *

- Measurement Parameters: in cyclohexanone, 282.95 K
Endpoint: solubility (mole fraction)

# Test Smiles, Endpoint, Obs Value
rows = [
    ("COC(=O)c1nc[nH]n1", "solubility (mole fraction)", 0.00583),
]

* * *

- Measurement Parameters: in n-butanol, 318.45 K

# Test Smiles, solubility (mole fraction)
measured = [
    ("COC(=O)c1nc[nH]n1", 0.00818),
]

* * *

- Measurement Parameters: in acetone, 297.95 K
Endpoint: solubility (mole fraction)

# Test Smiles, Obs Value
data = [
    ("COC(=O)c1nc[nH]n1", 0.00286),
]

* * *

- Measurement Parameters: in acetone, 302.65 K

# Test Smiles, solubility (mole fraction)
measured = [
    ("COC(=O)c1nc[nH]n1", 0.0033),
]

* * *

- Measurement Parameters: in methanol, 306.95 K
Endpoint: solubility (mole fraction)

# Test Smiles, Endpoint, Obs Value
records = [
    ("COC(=O)c1nc[nH]n1", "solubility (mole fraction)", 0.00768),
]
